tested on: HeLa; assay: Cytotoxicity against human HeLa cells by MTT assay; format: functional, cell-based
pIC50: −log10 of the molar value.
metric: pIC50

{"smilesStructure": "COc1cccc2c1C(=O)c1c(O)c3c(c(O)c1C2=O)C[C@@](O)(C(=O)CO)C[C@@H]3O[C@H]1C[C@H](N)[C@H](O)[C@H](C)O1", "metric": "pIC50", "ltGtEq": ">", "reportedValue": 6.00}
{"smilesStructure": "CC1=C[C@@]2(O)C(=O)[C@@H](C)C[C@@H]3[C@H](CC[C@](C)(O)/C=C/2[C@@H]1O)C3(C)C", "metric": "pIC50", "ltGtEq": "=", "reportedValue": 5.12}
{"smilesStructure": "C[C@H]1C[C@@H]2[C@H](CC[C@](C)(O)/C=C3\\[C@H](O)[C@@H](C)C[C@@]3(O)C1=O)C2(C)C", "metric": "pIC50", "ltGtEq": "=", "reportedValue": 4.81}
